subject_of_test: mTOR (Homo sapiens)
Construct: endogenous in cells; host or cells: Jurkat cells (ATCC TIB-152, clone E6-1), lysate
assay_details: mTOR kinobeads assay (dot blot detection)
Format: binding
experimental_conditions: Table 2, Jurkat cell lysate, read-out: Inhibition values (IC50) mTor
Experimental: The compounds of the present invention as described were tested in the mTOR kinobeads assay as described below. […] Bound proteins were then eluted and the presence of mTOR, PI3K delta (PI3 Kd) and DNA-dependent protein kinase (DNA-PK) was detected and quantified using a specific antibody in a dot blot procedure and the Odyssey infrared detection system. Dose response curves for individual kinases were generated and IC50 values calculated. […]
measurement_label: IC50

Sample records with IC50:
[[record]]
record_smiles = "C[C@H]1COCCN1c1cc(-c2ccccn2)nc(-c2ccc(NC(=O)NC3CC3)cc2)n1"
result = "100 to 1000 nM"

[[record]]
record_smiles = "CCNC(=O)Nc1ccc(-c2cc(-c3ccccc3S(=O)(=O)N(C)C)nc(N3CCOC[C@@H]3C)n2)cc1"
result = "100 to 1000 nM"

[[record]]
record_smiles = "C[C@H]1COCCN1c1cc(-c2ccncc2)nc(-c2ccc(NC(=O)NC3CC3)cc2)n1"
result = "100 to 1000 nM"

[[record]]
record_smiles = "O=C(Nc1ccc(-c2cc(-c3cccnc3)nc(N3CCOCC3)n2)cc1)NC1CC1"
result = "1000 to 10000 nM"

[[record]]
record_smiles = "CNC(=O)Nc1ccc(-c2nccc(N3CCOCC3)n2)cc1"
result = "1000 to 10000 nM"

[[record]]
record_smiles = "O=C(NCCO)Nc1ccc(-c2nccc(N3CC4CCC(C3)O4)n2)cc1"
result = "< 100 nM"


Value of measured IC50 for the entry `CNC(=O)Nc1ccc(-c2ccnc(N3CCOCC3)n2)cc1` : 1000 to 10000 nM
